# Tgt: fusion glycoprotein of the MPV D280 used in the neutralization assay of Example 3 (metapneumovirus (strain not stated))
# Test details: cell-based or functional assay
I'd appreciate it if you could supply MPV D280 Neutralization - IC50 values for the items below.
Answers are plain numbers, in µg/mL.

Worked cases, answers included:
# Binder, MPV D280 Neutralization - IC50, µg/mL
records = [
    ("MPK155 (antibody, V domains shown) VH: EVQLVESGGGLVKPGGSLRLSCEASGISLSGYYMIWIRQAPGKGLEWISSISSSSNYIDYADSVRGRFTISRHNGQNTLYLQMNSLRVEDTAVYFCATEQTPSPGPFDLWGQGILVTVSS VL: QSVLTQPPSVSGAPGQRVTIFCTGTSSNLGAGYDVHWYQQFPGTSPKLLIYRYTNRPSGVPDRFSGSKSGSSASLAIAGLQAEDEADYYCQSYDRSVSGWVFGGGTKLTVL", 0.0141),
    ("MPK132-v1 (antibody, V domains shown) VH: EVQLVESGGGLVKPGGSLRLSCEASGISLSGYYMIWIRQAPGKGLEWISSISSSSNYIDYADSVKGRFTISRHNGQNTLYLQMNSLRVEDTAVYFCATEQTPSPGPFELWGQGILVTVSS VL: QSVVTQPPSVSGAPGQRVTIFCTGTSSNIGTGYDVHWYQQFPGTSPKLLIYRNTNRPSGVPDRFSGSKSGSSASLAIAGLQAEDEADYYCQSYDRSVSGWVFGGGTKLTVL", 0.0101),
]

Kindly review the next binder as well.
For this binder ( MPK157 (antibody, V domains shown) VH: EVQLVESGGGLVKPGGSLRLSCSASGFTLSGYNMNWVRQAPGKGLEWISYISASSSYINYADSVKGRFTISRDNGRSSLYLQMNSLRAEDTAVYFCTTQAELPGWFDPWGQGTLVTVSS VL: QSVLTQPPSMSGAPGQRVTISCTGSSSNIGAGYDVNWYRQLPGTAPQLLIYRNTNRPSGVPDRFSGSNSGTSASLAITGLQADDEAHYYCQSYDRSLSGWVFGGGTKLTVL ), measured MPV D280 Neutralization - IC50 is 0.0079

Sourced from patent US20260028391A1
